- PROTOCOL NOTES: in vitro
- RUN CONDITIONS: human
ATTRIBUTE MEASURED: CC50

Prompt: Return reported CC50; argument: Cn1cnc(Cn2c(=O)[nH]/c(=N\c3cc4cn(C)nc4cc3Cl)n(Cc3cc(F)c(F)cc3F)c2=O)n1 [ensitrelvir, reference compound]
Response: > 100 µM

###

- PROTOCOL NOTES: In vitro stability in human plasma
- Assay type: in vitro ADME
- RUN CONDITIONS: plasma diluted to 80% with sodium phosphate buffer, pH 7.4, male human plasma, 37°C, read-out: plasma half‐life t 1/2
Structures can show the parent of a compound that is named as a salt.
I'd appreciate it if you could supply half-life at 100 µM values for the items below.
Give bare numbers, in min.

CC(C)(C)[C@H](NC(=O)c1cccs1)C(=O)N[C@@H](Cc1ccccc1)C(=O)NN(Cc1cccc(Cl)c1)C(=O)CCl    95.9

From here, focus on the item given below.
Prompt: Could you share which half-life at 100 µM value was measured for CCN(CC)CCOC(=O)c1ccc(N)cc1 [Procaine hydrochloride, reference compound] ?
Response: 7.8

###

- TEST SYSTEM: SARS‐CoV‐2 M^pro (Severe acute respiratory syndrome coronavirus 2)
- PROTOCOL NOTES: Screening of M^pro inhibition at 10 and 50 µM (fluorogenic substrate Boc‐Abu‐Tle‐Leu‐Gln‐AMC)
- Format: biochemical
- RUN CONDITIONS: read-out: Inhibition @ [I] = 50 µM (%)
ATTRIBUTE MEASURED: inhibition at 50 µM (%)
Answers are plain numbers, in %.

CN(CC#N)NC(=O)[C@H](Cc1ccccc1)NC(=O)OCc1ccccc1 [Compound 10]    11
COC(=O)CC(=O)N(C)NC(=O)[C@H](Cc1ccccc1)NC(=O)OCc1ccccc1 [Compound 4]    0
CN(NC(=O)[C@H](Cc1ccccc1)NC(=O)OCc1ccccc1)C(=O)C(F)(F)Cl [Compound 9]    15

Pending molecule:
Prompt: Write down the reported inhibition at 50 µM of CCOC(=O)N(C)NC(=O)[C@H](Cc1ccccc1)NC(=O)OCc1ccccc1 [Compound 3] , test system: SARS‐CoV‐2 M^pro (Severe acute respiratory syndrome coronavirus 2).
Response: 3

###

Kindly supply the reported inhibition at 10 µM values for the records listed here.
- TEST SYSTEM: SARS‐CoV‐2 M^pro (Severe acute respiratory syndrome coronavirus 2, UniProt P0DTD1)
- PROTOCOL NOTES: Screening of M^pro inhibition at 10 and 50 µM (fluorogenic substrate Boc‐Abu‐Tle‐Leu‐Gln‐AMC)
- Assay type: biochemical
- RUN CONDITIONS: read-out: Inhibition @ [I] = 10 µM (%)
Answers are plain numbers, in %.

CN(NC(=O)[C@H](Cc1ccccc1)NC(=O)OCc1ccccc1)S(=O)(=O)F    40

Could you tell me inhibition at 10 µM for each of these compounds? They are listed below.
1. COC(=O)CC(=O)N(C)NC(=O)[C@H](Cc1ccccc1)NC(=O)OCc1ccccc1
2. CCOC(=O)/C=C/C(=O)N(C)NC(=O)[C@H](Cc1ccccc1)NC(=O)OCc1ccccc1
3. CCOC(=O)N(C)NC(=O)[C@H](Cc1ccccc1)NC(=O)OCc1ccccc1

Response:
1. 0
2. 7
3. 2

Taken from paper PMC12723578.
